Every entry's value here was drawn from patent US7816330B2.

- Target Or Test System: human SGLT2 (Homo sapiens, UniProt P31639)
- Construct: expressed in transfected cells; pcDNA vector)
- Sequence (P31639 1-672): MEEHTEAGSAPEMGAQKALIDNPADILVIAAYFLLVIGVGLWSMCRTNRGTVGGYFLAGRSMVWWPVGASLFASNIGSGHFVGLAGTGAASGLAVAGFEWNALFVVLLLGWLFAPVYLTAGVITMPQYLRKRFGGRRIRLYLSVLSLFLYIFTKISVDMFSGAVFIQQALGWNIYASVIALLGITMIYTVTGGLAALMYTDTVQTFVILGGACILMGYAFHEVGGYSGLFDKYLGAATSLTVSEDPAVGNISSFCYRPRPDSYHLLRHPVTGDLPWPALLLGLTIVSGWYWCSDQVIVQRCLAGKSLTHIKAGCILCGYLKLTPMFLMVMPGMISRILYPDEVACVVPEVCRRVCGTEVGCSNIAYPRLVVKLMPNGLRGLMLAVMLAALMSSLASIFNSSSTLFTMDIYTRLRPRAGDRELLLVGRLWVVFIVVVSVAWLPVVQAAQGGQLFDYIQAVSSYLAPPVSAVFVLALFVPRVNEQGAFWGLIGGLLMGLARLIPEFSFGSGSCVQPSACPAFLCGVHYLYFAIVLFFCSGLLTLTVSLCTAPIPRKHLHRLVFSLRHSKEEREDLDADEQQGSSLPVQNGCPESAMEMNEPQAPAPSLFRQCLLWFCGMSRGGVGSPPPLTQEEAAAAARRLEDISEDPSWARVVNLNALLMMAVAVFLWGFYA
- Measurement Notes: Cell-based assay for sodium-dependent glucose transport (14C-AMG uptake), CHOK-SGLT2
- Applied Conditions: CHO-K1 cells stably expressing human SGLT2; Na-dependent 14C-AMG uptake
Here the recorded IC50 is given for each entry.
Numeric only. Scale: nM

Reference set (3 entries):
- Molecule: "CCc1ccc(Cn2c(=O)[nH]c3cccc(OC4OC(CO)C(O)C(O)C4O)c32)cc1 (centres unmarked) [Example 3]"
  Measurement Name: "IC50"
  Experimental Result: 1020
- Molecule: "CCc1ccc(Cn2cnc3cccc(OC4OC(CO)C(O)C(O)C4O)c32)cc1 (centres unmarked) [Example 4]"
  Measurement Name: "IC50"
  Experimental Result: 16
- Molecule: "OCC1OC(Oc2cccc3ncn(CCc4ccc5c(c4)CCO5)c23)C(O)C(O)C1O (centres unmarked) [Example 7]"
  Measurement Name: "IC50"
  Experimental Result: 38

IN: Enter reported IC50 observed with human SGLT2 (Homo sapiens, UniProt P31639) for CCc1ccc(Cn2nnc3cccc(OC4OC(CO)C(O)C(O)C4O)c32)cc1 (centres unmarked) [Example 10]
OUT: 8
